# condition label: in water, 331.7 K
value type: solubility (mole fraction)

INSERT INTO results (smiles_entry, reported) VALUES
  ('CC1(C)C[C@@H]1C(N)=O', 0.00917);

---

# condition label: in ethanol, 299.25 K
value type: solubility (mole fraction)

INSERT INTO measurements (smiles_entry, value_type, reported) VALUES
  ('CC1(C)C[C@@H]1C(N)=O', 'solubility (mole fraction)', 0.107);

---

# condition label: in toluene, 348.06 K
value type: solubility (mole fraction)

INSERT INTO results (smiles_entry, reported) VALUES
  ('CC1(C)C[C@@H]1C(N)=O', 0.035);

---

# condition label: in ethyl acetate, 294.53 K
value type: solubility (mole fraction)

INSERT INTO assay_data (smiles_entry, reported) VALUES
  ('CC1(C)C[C@@H]1C(N)=O', 0.0279);

---

# condition label: in chloroform, 286.26 K
value type: solubility (mole fraction)

INSERT INTO results (smiles_entry, value_type, reported) VALUES
  ('CC1(C)C[C@@H]1C(N)=O', 'solubility (mole fraction)', 0.0357);

---

# condition label: in dichloromethane, 302.2 K
value type: solubility (mole fraction)

INSERT INTO measurements (smiles_entry, value_type, reported) VALUES
  ('CC1(C)C[C@@H]1C(N)=O', 'solubility (mole fraction)', 0.0268);

---

# condition label: in toluene, 302.9 K
value type: solubility (mole fraction)

INSERT INTO measurements (smiles_entry, reported) VALUES
  ('CC1(C)C[C@@H]1C(N)=O', 0.004);

---

# condition label: in water, 327.39 K
value type: solubility (mole fraction)

INSERT INTO results (smiles_entry, value_type, reported) VALUES
  ('CC1(C)C[C@@H]1C(N)=O', 'solubility (mole fraction)', 0.00716);

---

# condition label: in dichloromethane, 306.27 K
value type: solubility (mole fraction)

INSERT INTO measurements (smiles_entry, value_type, reported) VALUES
  ('CC1(C)C[C@@H]1C(N)=O', 'solubility (mole fraction)', 0.0321);

---

# condition label: in ethyl acetate, 316.3 K
value type: solubility (mole fraction)

INSERT INTO results (smiles_entry, reported) VALUES
  ('CC1(C)C[C@@H]1C(N)=O', 0.0557);

---

# condition label: in chloroform, 317.45 K
value type: solubility (mole fraction)

INSERT INTO assay_data (smiles_entry, reported) VALUES
  ('CC1(C)C[C@@H]1C(N)=O', 0.0789);

---

# condition label: in dichloromethane, 309.29 K
value type: solubility (mole fraction)

INSERT INTO assay_data (smiles_entry, value_type, reported) VALUES
  ('CC1(C)C[C@@H]1C(N)=O', 'solubility (mole fraction)', 0.0367);

---

# condition label: in toluene, 328.47 K
value type: solubility (mole fraction)

INSERT INTO results (smiles_entry, reported) VALUES
  ('CC1(C)C[C@@H]1C(N)=O', 0.0137);

---

# condition label: in ethyl acetate, 323.65 K
value type: solubility (mole fraction)

INSERT INTO assay_data (smiles_entry, value_type, reported) VALUES
  ('CC1(C)C[C@@H]1C(N)=O', 'solubility (mole fraction)', 0.0787);

---

# condition label: in dichloromethane, 298.74 K
value type: solubility (mole fraction)

INSERT INTO measurements (smiles_entry, value_type, reported) VALUES
  ('CC1(C)C[C@@H]1C(N)=O', 'solubility (mole fraction)', 0.0233);

---

# condition label: in toluene, 324.07 K
value type: solubility (mole fraction)

INSERT INTO measurements (smiles_entry, reported) VALUES
  ('CC1(C)C[C@@H]1C(N)=O', 0.011);

---

# condition label: in water, 340.86 K
value type: solubility (mole fraction)

INSERT INTO measurements (smiles_entry, reported) VALUES
  ('CC1(C)C[C@@H]1C(N)=O', 0.0146);

---

# condition label: in toluene, 311.23 K
value type: solubility (mole fraction)

INSERT INTO results (smiles_entry, reported) VALUES
  ('CC1(C)C[C@@H]1C(N)=O', 0.00599);

---

# condition label: in ethanol, 313.53 K
value type: solubility (mole fraction)

INSERT INTO results (smiles_entry, reported) VALUES
  ('CC1(C)C[C@@H]1C(N)=O', 0.148);

---

# condition label: in chloroform, 300.25 K
value type: solubility (mole fraction)

INSERT INTO measurements (smiles_entry, reported) VALUES
  ('CC1(C)C[C@@H]1C(N)=O', 0.0484);

---

# condition label: in dichloromethane, 296.11 K
value type: solubility (mole fraction)

INSERT INTO assay_data (smiles_entry, reported) VALUES
  ('CC1(C)C[C@@H]1C(N)=O', 0.0205);

---

# condition label: in water, 308.15 K
value type: solubility (mole fraction)

INSERT INTO measurements (smiles_entry, value_type, reported) VALUES
  ('CC1(C)C[C@@H]1C(N)=O', 'solubility (mole fraction)', 0.00499);

---

# condition label: in chloroform, 314.18 K
value type: solubility (mole fraction)

INSERT INTO measurements (smiles_entry, value_type, reported) VALUES
  ('CC1(C)C[C@@H]1C(N)=O', 'solubility (mole fraction)', 0.0699);

---

# condition label: in ethyl acetate, 288.96 K
value type: solubility (mole fraction)

INSERT INTO measurements (smiles_entry, reported) VALUES
  ('CC1(C)C[C@@H]1C(N)=O', 0.0169);

---

# condition label: in toluene, 288.7 K
value type: solubility (mole fraction)

INSERT INTO results (smiles_entry, reported) VALUES
  ('CC1(C)C[C@@H]1C(N)=O', 0.00221);

---

# condition label: in ethyl acetate, 328.41 K
value type: solubility (mole fraction)

INSERT INTO measurements (smiles_entry, reported) VALUES
  ('CC1(C)C[C@@H]1C(N)=O', 0.0912);

---

# condition label: in chloroform, 310.96 K
value type: solubility (mole fraction)

INSERT INTO measurements (smiles_entry, value_type, reported) VALUES
  ('CC1(C)C[C@@H]1C(N)=O', 'solubility (mole fraction)', 0.0665);

---

# condition label: in chloroform, 293.65 K
value type: solubility (mole fraction)

INSERT INTO measurements (smiles_entry, reported) VALUES
  ('CC1(C)C[C@@H]1C(N)=O', 0.0395);

---

# condition label: in ethanol, 293.28 K
value type: solubility (mole fraction)

INSERT INTO assay_data (smiles_entry, value_type, reported) VALUES
  ('CC1(C)C[C@@H]1C(N)=O', 'solubility (mole fraction)', 0.0945);

---

# condition label: in ethanol, 302.71 K
value type: solubility (mole fraction)

INSERT INTO assay_data (smiles_entry, reported) VALUES
  ('CC1(C)C[C@@H]1C(N)=O', 0.116);

---

# condition label: in ethanol, 318.09 K
value type: solubility (mole fraction)

INSERT INTO measurements (smiles_entry, reported) VALUES
  ('CC1(C)C[C@@H]1C(N)=O', 0.163);

---

# condition label: in chloroform, 321.27 K
value type: solubility (mole fraction)

INSERT INTO measurements (smiles_entry, value_type, reported) VALUES
  ('CC1(C)C[C@@H]1C(N)=O', 'solubility (mole fraction)', 0.0902);

---

# condition label: in chloroform, 296.64 K
value type: solubility (mole fraction)

INSERT INTO results (smiles_entry, reported) VALUES
  ('CC1(C)C[C@@H]1C(N)=O', 0.0429);

---

# condition label: in ethyl acetate, 290 K
value type: solubility (mole fraction)

INSERT INTO measurements (smiles_entry, reported) VALUES
  ('CC1(C)C[C@@H]1C(N)=O', 0.0205);

---

# condition label: in dichloromethane, 288.72 K
value type: solubility (mole fraction)

INSERT INTO measurements (smiles_entry, reported) VALUES
  ('CC1(C)C[C@@H]1C(N)=O', 0.0152);

---

# condition label: in ethanol, 296.81 K
value type: solubility (mole fraction)

INSERT INTO results (smiles_entry, reported) VALUES
  ('CC1(C)C[C@@H]1C(N)=O', 0.101);

---

# condition label: in water, 314.67 K
value type: solubility (mole fraction)

INSERT INTO measurements (smiles_entry, value_type, reported) VALUES
  ('CC1(C)C[C@@H]1C(N)=O', 'solubility (mole fraction)', 0.00583);

---

# condition label: in toluene, 332.43 K
value type: solubility (mole fraction)

INSERT INTO measurements (smiles_entry, reported) VALUES
  ('CC1(C)C[C@@H]1C(N)=O', 0.016);

---

# condition label: in ethyl acetate, 305.88 K
value type: solubility (mole fraction)

INSERT INTO assay_data (smiles_entry, reported) VALUES
  ('CC1(C)C[C@@H]1C(N)=O', 0.0409);

The reported measurements were obtained from BigSolDB 2.1.
